Consider the following compounds; for each one, report its GI50.
- Tested on: UACC-62
- Run description: NCI tumour cell line growth inhibition, 48 h
Active and inactive are the calls of the source. Rule as the data show it: active = GI50 up to about 1.1 µM and inactive = higher.

// map C=C1CCC(CC[C@@H]2CC[C@]3(OC2)O[C@@]2(O)CC[C@]3(C)OC2(C)C)C(C)(C)[C@H]1C/C=C1/C(=O)OC[C@@H]1O (some centres not stated) to recorded GI50 (system: UACC-62)
1.34 µM (inactive)

// map CNC1C(=O)C(C)C(O)(C(CC(C)C(O)/C=C/C=C/CNC(=O)C(C)(C)C(O)\C(C)=C/C=C\C=C\Cc2cnc(C)o2)OC)C12C(=O)OC2C.CNC1C(=O)C(C)C(O)(C(CC(C)C(O)/C=C/C=C/CNC(=O)C(C)(C)C(O)\C(C)=C/C=C\C=C\Cc2cnc(C)o2)OC)C12C(=O)OC2COC (configuration not stated) to recorded GI50 (system: UACC-62)
13.3 µM (inactive)

// map `CN(CCc1ccccn1)c1ccc2c(c1)Cc1ccccc1-2` to recorded GI50 (system: UACC-62)
10.6 µM (inactive)

// map `COc1ccc(N2N=NN(C(C)C)/C2=C(/Cl)c2nnnn2-c2ccc(OC)cc2)cc1` to recorded GI50 (system: UACC-62)
14.4 µM (inactive)

// map [N-]=[N+]=NC(c1cn(C2CC(O)C(CO)O2)c(=O)[nH]c1=O)C(I)I (configuration not stated) to recorded GI50 (system: UACC-62)
> 100 µM (inactive)

// map `C[C@]12CC[C@@H]3c4ccc(OP(=O)(O)O)cc4CC[C@H]3[C@@H]1CCC2=O` to recorded GI50 (system: UACC-62)
66.2 µM (inactive)

// map CCCCOC(=O)C(O)Cc1ccoc1 (configuration not stated) to recorded GI50 (system: UACC-62)
> 100 µM (inactive)
